# tested.system: human TLR8 (Homo sapiens (Human))
# Sequence (Q9NR97 27-1041): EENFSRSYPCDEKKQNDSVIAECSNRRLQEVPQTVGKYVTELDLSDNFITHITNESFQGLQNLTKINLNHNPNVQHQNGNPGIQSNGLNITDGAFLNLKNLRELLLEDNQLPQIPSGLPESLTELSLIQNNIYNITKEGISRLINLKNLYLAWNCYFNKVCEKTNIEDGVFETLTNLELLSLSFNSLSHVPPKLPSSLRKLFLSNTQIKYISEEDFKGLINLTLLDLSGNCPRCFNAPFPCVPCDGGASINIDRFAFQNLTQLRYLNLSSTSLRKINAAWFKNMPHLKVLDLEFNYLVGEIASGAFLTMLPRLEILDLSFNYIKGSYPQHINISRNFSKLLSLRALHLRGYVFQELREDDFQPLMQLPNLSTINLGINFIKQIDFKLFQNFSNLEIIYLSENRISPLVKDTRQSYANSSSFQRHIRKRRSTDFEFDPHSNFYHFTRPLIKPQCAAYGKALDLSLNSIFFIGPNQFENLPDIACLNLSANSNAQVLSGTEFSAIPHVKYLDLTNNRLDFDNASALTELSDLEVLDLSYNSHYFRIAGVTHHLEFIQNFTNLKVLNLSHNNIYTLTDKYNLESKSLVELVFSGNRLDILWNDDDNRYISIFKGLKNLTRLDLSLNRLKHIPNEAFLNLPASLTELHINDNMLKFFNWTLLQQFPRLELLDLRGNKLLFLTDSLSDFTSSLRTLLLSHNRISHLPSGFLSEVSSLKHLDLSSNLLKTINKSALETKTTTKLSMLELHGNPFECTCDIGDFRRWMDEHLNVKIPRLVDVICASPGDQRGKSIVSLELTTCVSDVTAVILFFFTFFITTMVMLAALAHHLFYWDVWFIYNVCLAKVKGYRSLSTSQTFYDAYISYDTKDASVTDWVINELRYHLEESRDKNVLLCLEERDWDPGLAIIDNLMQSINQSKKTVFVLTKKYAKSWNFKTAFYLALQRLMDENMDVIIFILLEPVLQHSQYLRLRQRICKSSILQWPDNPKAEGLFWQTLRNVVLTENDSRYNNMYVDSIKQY
# protocol.notes: TLR8 inhibition reporter assay (HEK-Blue cells, SEAP reporter, R848 stimulation);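 note: compounds tested from 0.05 nM to 50 µM, 22 h at 37 °C, SEAP measured with HEK-Blue Detection, inhibition relative to agonist plus DMSO versus a known inhibitor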
# condition.label: read-out: TLR8 IC50, HEK-Blue cells overexpressing human TLR8, R848 15.9 μM
pIC50: −log10 of the molar value.
measure: pIC50

Worked cases, pIC50 given:
| sample.smiles | measured.value |
| --- | --- |
| Cc1cc(-c2[nH]c3ccc(C4CCN(CC(=O)N(C)CC(C)(C)O)CC4)cc3c2C(C)C)cc(C)n1 | 7.95 |
| Cc1cc(-c2[nH]c3ccc(C4CCN(Cc5[nH]cnc5C)CC4)cc3c2C(C)C)ccn1 | 7.87 |

a. Cc1cc(-c2[nH]c3ccc(C4CCN(C(=O)CN5CCOC[C@H]5CO)CC4)cc3c2C(C)C)cc(C)n1
b. Cc1cc(-c2[nH]c3ccc(C4CCN(CC(=O)NC5(C)COC5)CC4)cc3c2C(C)C)cc(C)n1
Determine, for a and b , which has the greater value of pIC50. Kindly state the label of the option you pick.
b

###

# tested.system: human TLR9 (Homo sapiens (Human))
# Sequence (Q9NR96 26-1032): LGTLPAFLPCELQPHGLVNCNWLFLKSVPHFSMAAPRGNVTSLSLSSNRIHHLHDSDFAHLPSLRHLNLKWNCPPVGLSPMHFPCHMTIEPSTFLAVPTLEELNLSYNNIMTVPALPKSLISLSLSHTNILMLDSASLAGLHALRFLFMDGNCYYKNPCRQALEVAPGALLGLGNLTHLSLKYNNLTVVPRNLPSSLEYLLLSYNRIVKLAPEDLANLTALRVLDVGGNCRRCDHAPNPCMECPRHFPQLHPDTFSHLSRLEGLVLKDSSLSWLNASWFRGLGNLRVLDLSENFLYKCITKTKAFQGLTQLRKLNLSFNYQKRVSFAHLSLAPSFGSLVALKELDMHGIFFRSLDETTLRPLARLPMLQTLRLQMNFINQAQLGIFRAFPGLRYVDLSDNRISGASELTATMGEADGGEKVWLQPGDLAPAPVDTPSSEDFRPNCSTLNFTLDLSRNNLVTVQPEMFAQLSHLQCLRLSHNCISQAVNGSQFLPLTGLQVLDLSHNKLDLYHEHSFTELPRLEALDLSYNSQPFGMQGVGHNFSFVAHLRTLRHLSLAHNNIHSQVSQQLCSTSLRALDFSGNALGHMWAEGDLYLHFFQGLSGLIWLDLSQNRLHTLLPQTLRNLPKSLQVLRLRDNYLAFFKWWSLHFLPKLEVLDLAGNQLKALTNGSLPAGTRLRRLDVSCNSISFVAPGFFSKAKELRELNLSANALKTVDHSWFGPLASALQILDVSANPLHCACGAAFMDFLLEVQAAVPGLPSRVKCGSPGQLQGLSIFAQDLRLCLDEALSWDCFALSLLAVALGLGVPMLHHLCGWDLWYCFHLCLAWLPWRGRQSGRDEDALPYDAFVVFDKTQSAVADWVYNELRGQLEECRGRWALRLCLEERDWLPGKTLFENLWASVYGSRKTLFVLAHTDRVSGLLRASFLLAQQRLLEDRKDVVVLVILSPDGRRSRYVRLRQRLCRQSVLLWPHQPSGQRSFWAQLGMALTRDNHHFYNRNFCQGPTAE
# protocol.notes: TLR9 inhibition reporter assay (HEK-Blue cells, SEAP reporter, ODN2006 stimulation)
# condition.label: read-out: TLR9 IC50, HEK-Blue cells overexpressing human TLR9, ODN2006 5 nM
measure: IC50 (nM)

Worked cases, IC50 given:
| sample.smiles | measured.value |
| --- | --- |
| Cc1cc(-c2[nH]c3ccc(C4CCN(C(=O)CCn5ccc(C)n5)CC4)cc3c2C(C)C)cc(C)n1 | 25000 |
| Cc1cc(-c2[nH]c3ccc(C4CCN(Cc5c[nH]cn5)CC4)cc3c2CC(F)F)cc(C)n1 | 32 |
| CCc1c(-c2ccnc(C)c2)[nH]c2ccc(C3CCN(C[C@@H]4CCCN4C(C)C)CC3)cc12 | 213 |
| Cc1cc(-c2[nH]c3ccc(C4CCN(CC(C)C)CC4)cc3c2C(C)C)c(C)cn1 | 948 |
| COc1cc(OC)nc(CN2CCC(c3ccc4[nH]c(-c5cc(C)nc(C)c5)c(C(C)C)c4c3)CC2)n1 | 446 |

I. Cc1cc(-c2[nH]c3ccc(C4CCN(CC(C)(C)O)CC4)cc3c2C2CC2)cc(C)n1
II. Cc1cc(-c2[nH]c3ccc(C4CCN(CCC#N)CC4)cc3c2C(C)C)c(C)cn1
Determine, for I and II , which has the greater value of IC50. Kindly state the label of the option you pick.
II
(II: 6210 nM, I: 149 nM)

###

# tested.system: human TLR9 (Homo sapiens (Human))
# protocol.notes: TLR9 inhibition reporter assay (HEK-Blue cells, SEAP reporter, ODN2006 stimulation);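 note: compounds tested over 0.05 nM to 50 µM, 22 h incubation, inhibition taken as SEAP signal drop from agonist plus DMSO wells toward a known inhibitor control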
# condition.label: read-out: TLR9 IC50, HEK-Blue cells overexpressing human TLR9, ODN2006 5 nM
measure: IC50 (nM)

Worked cases, IC50 given:
| compound | tested.system | units.of.measure | IC50 |
| --- | --- | --- | --- |
| Cc1cc(-c2[nH]c3ccc(C4CCN(Cc5ccn[nH]5)CC4)cc3c2C(C)C)c(C)cn1 | human TLR9 (Homo sapiens (Human)) | nM | 1530 |
| Cc1cc(-c2[nH]c3ccc(C4CCN(C5CCOC5)CC4)cc3c2C(C)C)c(F)cn1 (centres unmarked) | human TLR9 (Homo sapiens (Human)) | nM | 2990 |
| Cc1cnccc1-c1[nH]c2ccc(C3CCNCC3)cc2c1C(C)C | human TLR9 (Homo sapiens (Human)) | nM | 8790 |
| Cc1cc(-c2[nH]c3ccc(C4CCN(C(=O)CCN(C)C5COC5)CC4)cc3c2C(C)C)cc(C)n1 | human TLR9 (Homo sapiens (Human)) | nM | 2110 |

a. Cc1cc(-c2[nH]c3ccc(C4CCN(C(C)CF)CC4)cc3c2C(C)C)cc(C)n1 (centres unmarked)
b. Cc1cc(-c2[nH]c3ccc(C4CCN(CC(=O)N5CCS(=O)(=O)CC5)CC4)cc3c2C(C)C)cc(C)n1
c. Cc1cc(-c2[nH]c3ccc(C4CCNCC4)cc3c2C(C)C)ccn1
Order these by IC50, descending, and give the full ranking. Sort the labels as requested; that list is your answer.
c, a, b
(c: 946 nM, a: 601 nM, b: 129 nM)

A. CCN(CCO)CC(=O)N1CCC(c2ccc3[nH]c(-c4cc(C)nc(C)c4)c(C(C)C)c3c2)CC1
B. Cc1cc(-c2[nH]c3ccc(C4CCN(CC(O)C(F)(F)F)CC4)cc3c2C(C)C)cc(C)n1 (centres unmarked) [Example 313]
C. Cc1cc(-c2[nH]c3ccc(C4CCN(CC(O)C(F)(F)F)CC4)cc3c2C(C)C)ccn1 (centres unmarked)
Sort the compounds on IC50; start with the lowest figure. Sort the labels as requested; that list is your answer.
A, C, B
(A: 705 nM, C: 1940 nM, B: 8060 nM)
